// provenance: patent US20220380319A1

Target: acid ceramidase (Homo sapiens, UniProt Q13510)
Construct: Cell lysates overexpressing acid ceramidase were used as the enzyme source; expressed in transfected cells
Sequence (Q13510 22-395): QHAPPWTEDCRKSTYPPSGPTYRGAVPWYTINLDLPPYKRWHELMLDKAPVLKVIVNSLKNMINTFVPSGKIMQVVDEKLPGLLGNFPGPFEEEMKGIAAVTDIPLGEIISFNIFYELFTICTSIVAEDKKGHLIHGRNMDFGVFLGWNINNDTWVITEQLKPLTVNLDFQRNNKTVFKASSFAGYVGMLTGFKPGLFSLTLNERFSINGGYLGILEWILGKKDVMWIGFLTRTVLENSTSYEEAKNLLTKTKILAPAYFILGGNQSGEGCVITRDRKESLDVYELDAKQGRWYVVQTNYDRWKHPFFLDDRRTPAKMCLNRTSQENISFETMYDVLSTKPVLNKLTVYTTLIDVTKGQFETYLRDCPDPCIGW
Assay: Acid ceramidase inhibition, biochemical fluorescent assay with cell lysates overexpressing acid ceramidase, substrate Rbm14-12
Conditions: substrate Rbm14-12 6.3 μM, pH 4.5, 1 hr preincubation at RT
Observed Property: IC50

{"columns": ["Compound", "IC50"],
 "data": [
  ["COc1nc2cc(N3CCOCC3)ccc2n1C(=O)NCCc1ccccc1 [Example 29b]", "200 to 1000 nM"],
  ["O=C(NC1CCCCC1)n1cnc2c(N3CCOCC3)cccc21", "> 1000 nM"],
  ["N#Cc1cccc2c1ncn2C(=O)NCCOc1ccccc1", "< 200 nM"],
  ["CCC(C)NC(=O)n1c(OC)nc2cc(-c3cncnc3)ccc21 (centres unmarked) [Example 109b]", "> 1000 nM"]
]}

Attention now shifts to the item below.
Query block: Dear colleague, I am looking for the recorded IC50 of the following compound: CN1CCN(c2ccc3ncn(C(=O)NCCc4ccccc4)c3c2)CC1 [Example 15b]
Result block: < 200 nM
